Cited source for all entries: patent US3966850A

Experiment: Toxicity test/peroral (LD50, evaluation after 7 days)
Conditions: rat, in vivo, po
PROPERTY: LD50 at 168 h

COMPOUND | MEASURED
CCCSP(=S)(OCC)Oc1ccc(C#N)cc1Br (stereo not shown) [I] | 100 to 250 mg/kg
